# credit: patent US20250170248A1

biological target: SMARCA2 (Homo sapiens); test: SMARCA2 Western blot degradation in MV4-11 cells; assay type: cell-based; set-up: SMARCA2/SMARCA4 protein degradation selectivity in MV4-11 cells; endogenous in cells; host or cells: MV4-11; conditions: MV4-11, MV4-11 cells, 24 h; read-out: SMARCA2 MSD MV411 degradation 24 h: average Dmax %
Sequence (P51531 whole entry): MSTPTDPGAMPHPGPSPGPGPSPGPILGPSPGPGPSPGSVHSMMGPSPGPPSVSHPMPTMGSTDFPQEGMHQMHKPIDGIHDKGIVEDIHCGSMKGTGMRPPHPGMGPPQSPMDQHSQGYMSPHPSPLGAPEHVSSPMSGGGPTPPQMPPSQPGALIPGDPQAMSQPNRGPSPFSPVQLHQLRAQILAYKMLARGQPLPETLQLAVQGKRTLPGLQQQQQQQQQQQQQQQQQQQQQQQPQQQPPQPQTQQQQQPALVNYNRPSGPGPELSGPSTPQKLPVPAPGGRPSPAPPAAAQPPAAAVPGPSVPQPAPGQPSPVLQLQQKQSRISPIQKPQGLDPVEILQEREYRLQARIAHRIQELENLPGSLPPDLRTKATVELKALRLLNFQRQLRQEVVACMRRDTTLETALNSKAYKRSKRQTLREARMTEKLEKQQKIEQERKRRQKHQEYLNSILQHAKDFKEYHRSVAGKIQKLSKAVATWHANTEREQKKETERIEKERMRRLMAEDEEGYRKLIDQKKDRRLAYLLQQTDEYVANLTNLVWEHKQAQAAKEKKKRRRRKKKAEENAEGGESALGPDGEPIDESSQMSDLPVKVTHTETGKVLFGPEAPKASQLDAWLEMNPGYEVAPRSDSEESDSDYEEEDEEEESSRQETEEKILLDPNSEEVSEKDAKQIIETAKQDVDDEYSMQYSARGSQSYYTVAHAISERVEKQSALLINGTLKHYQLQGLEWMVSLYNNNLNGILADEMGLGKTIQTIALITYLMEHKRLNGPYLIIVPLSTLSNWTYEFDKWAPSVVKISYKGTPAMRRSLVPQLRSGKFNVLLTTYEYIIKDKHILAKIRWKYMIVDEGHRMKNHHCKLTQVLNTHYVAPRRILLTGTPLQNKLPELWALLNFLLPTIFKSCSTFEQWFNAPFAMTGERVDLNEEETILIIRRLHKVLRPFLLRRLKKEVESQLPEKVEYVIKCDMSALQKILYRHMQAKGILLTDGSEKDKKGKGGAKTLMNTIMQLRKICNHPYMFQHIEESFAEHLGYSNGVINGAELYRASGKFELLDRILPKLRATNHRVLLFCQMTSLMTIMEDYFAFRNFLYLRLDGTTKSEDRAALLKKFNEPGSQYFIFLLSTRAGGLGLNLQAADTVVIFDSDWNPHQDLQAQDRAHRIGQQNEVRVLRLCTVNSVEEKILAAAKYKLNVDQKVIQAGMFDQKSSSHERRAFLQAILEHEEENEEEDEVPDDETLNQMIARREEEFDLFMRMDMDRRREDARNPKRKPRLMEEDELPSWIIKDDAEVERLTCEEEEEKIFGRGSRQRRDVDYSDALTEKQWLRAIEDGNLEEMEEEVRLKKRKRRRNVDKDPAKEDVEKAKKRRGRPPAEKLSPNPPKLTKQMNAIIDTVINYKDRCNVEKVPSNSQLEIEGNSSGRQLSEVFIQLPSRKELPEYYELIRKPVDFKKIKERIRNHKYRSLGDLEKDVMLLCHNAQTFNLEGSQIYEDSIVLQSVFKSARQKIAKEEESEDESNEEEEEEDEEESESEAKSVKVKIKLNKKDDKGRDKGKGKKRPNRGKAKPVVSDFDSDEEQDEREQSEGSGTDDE
Listed here are compounds together with their documented Dmax.

compound	Dmax
CC#Cc1ccc(CNC(=O)[C@@H]2C[C@@H](O)CN2C(=O)[C@@H](NC(=O)N2CC3(CC(N4CCC(c5cnc(N6CCc7[nH]c8nnc(-c9ccccc9O)cc8c7[C@H]6C)nc5)CC4)C3)C2)C(C)(C)C)c(OC)c1	70 to 90%
C#Cc1ccc(CNC(=O)[C@@H]2C[C@@H](O)CN2C(=O)[C@@H](NC(=O)C2CCC3(CC2)CC(N2CCC(N4CCC[C@H](C(=O)N5CCN6c7cc(-c8ccccc8O)nnc7NC[C@H]6C5)C4)CC2)C3)C(C)(C)C)cc1 (single isomer, unassigned)	70 to 90%
C#Cc1ccc(CNC(=O)[C@@H]2C[C@@H](O)CN2C(=O)[C@@H](NC(=O)N2CC3(CC(N4CCC(c5cnc(N6CCc7[nH]c8nnc(-c9ccccc9O)cc8c7[C@H]6C)nc5)CC4)C3)C2)C(C)(C)C)c(F)c1	70 to 90%
C#Cc1ccc(CNC(=O)[C@@H]2C[C@@H](O)CN2C(=O)[C@@H](NC(=O)N2CC3(CC(N4CCC(c5cnc(N6CCc7[nH]c8nnc(-c9ccccc9O)cc8c7[C@H]6C)nc5)CC4)C3)C2)C(C)(C)CCN2CCOCC2)cc1 (single isomer, unassigned)	< 50%
C#Cc1ccc(CNC(=O)[C@@H]2C[C@@H](O)CN2C(=O)[C@@H](NC(=O)[C@H]2CCC3(CC2)C[C@H](N2CCN(c4cnc(N5CCN6c7cc(-c8ccccc8O)nnc7NC[C@H]6C5)nc4)CC2)C3)C(C)(C)CCO)c(Cl)c1 (single isomer, unassigned)	70 to 90%
C#Cc1ccc(CNC(=O)[C@@H]2C[C@@H](O)CN2C(=O)[C@@H](NC(=O)[C@H]2CC[C@@H](c3ccc(-c4cnc(N5CCN6c7cc(-c8ccccc8O)nnc7NC[C@H]6C5)nc4)cc3)CC2)C(C)(C)C)cc1	> 90%
C#Cc1ccc(CNC(=O)[C@@H]2C[C@@H](O)CN2C(=O)[C@@H](NC(=O)[C@H]2CCC3(CC2)C[C@H](N2CCC(c4cnc(N5CCN6c7cc(-c8ccccc8O)nnc7NC[C@H]6C5)nc4)CC2)C3)C(C)(C)C)c(OC)c1 (single isomer, unassigned)	> 90%
Cc1ncsc1-c1ccc(CNC(=O)[C@@H]2C[C@@H](O)CN2C(=O)[C@@H](NC(=O)C2CC3(C2)CC(N2CCC(N4CCC(N5CCN6c7cc(-c8ccccc8O)nnc7NC[C@H]6C5)CC4)CC2)C3)C(C)(C)C)cc1 (stereo partly shown)	70 to 90%
C#Cc1ccc([C@H](CCO)NC(=O)[C@@H]2C[C@@H](O)CN2C(=O)[C@@H](NC(=O)N2CC3(CC(N4CCC(c5cnc(N6CCc7[nH]c8nnc(-c9ccccc9O)cc8c7[C@H]6C)nc5)CC4)C3)C2)C(C)(C)C)cc1	70 to 90%
C#Cc1ccc([C@H](C)NC(=O)[C@@H]2C[C@@H](O)CN2C(=O)C(c2cc(N3CC4(CC(N5CCC(N6CCC(N7CCN8c9cc(-c%10ccccc%10O)nnc9NC[C@H]8C7)CC6)CC5)C4)C3)no2)C(C)C)cc1 (stereo partly shown)	> 90%
Cn1nccc1-c1ccc(CNC(=O)[C@@H]2C[C@@H](O)CN2C(=O)[C@@H](NC(=O)[C@H]2CC[C@@H](c3ccc(-c4cnc(N5CCN6c7cc(-c8ccccc8O)nnc7NC[C@H]6C5)nc4)cc3)CC2)C(C)(C)C)cc1 (single isomer, unassigned)	> 90%
C#Cc1ccc(CNC(=O)[C@@H]2C[C@@H](O)CN2C(=O)[C@@H](NC(=O)CN2CC3(CC(N4CCC(N5CCC(N6CCN7c8cc(-c9ccccc9O)nnc8NC[C@H]7C6)CC5)CC4)C3)C2)C(C)(C)C)cc1	70 to 90%
C#Cc1ccc(CNC(=O)[C@@H]2C[C@@H](O)CN2C(=O)[C@@H](NC(=O)N2CCN(C[C@H]3CCN(c4cnc(N5CCc6[nH]c7nnc(-c8ccccc8O)cc7c6[C@H]5C)nc4)C3)CC2)C(C)(C)C)cc1 (single isomer, unassigned)	50 to 70%
Cc1ncsc1-c1ccc(CNC(=O)[C@@H]2C[C@@H](O)CN2C(=O)C(c2cc(N3CCC4(CC3)CC(N3CCC(c5cnc(N6CCc7[nH]c8nnc(-c9ccccc9O)cc8c7[C@@H]6C)nc5)CC3)C4)no2)C(C)C)cc1 (single isomer, unassigned)	70 to 90%
C#Cc1ccc(CNC(=O)[C@@H]2C[C@@H](O)CN2C(=O)[C@@H](NC(=O)N2CC3(CC(N4CCC(c5cnc(N6CCc7[nH]c8nnc(-c9ccccc9O)cc8c7[C@H]6C)nc5)CC4)C3)C2)C(C)(C)C)c(OCC(=O)O)c1	70 to 90%
C#Cc1ccc(CNC(=O)[C@@H]2C[C@@H](O)CN2C(=O)[C@@H](NC(=O)[C@H]2CCC3(CC2)C[C@H](N2CCC(c4cnc(N5CCN6c7cc(-c8ccccc8O)nnc7NC[C@H]6C5)nc4)CC2)C3)C(C)(C)C)c(F)c1 (single isomer, unassigned)	70 to 90%
